The measurements presented in this section are drawn from paper PMC5703966.

- assay.info: Systemic clearance and brain distribution in WT and 3 × Tg-AD mice (8 months)
- Type: in vivo, mouse
- conditions: mouse, plasma, iv; AD mice 8 months, 1 mg/kg i.v.; read-out: MRT 0−∞
quantity: MRT inf (h)
Answer format: numeric, h implied, no suffix.

| molecule | quantity | scale.unit | endpoint.value |
| --- | --- | --- | --- |
| COCCOCCn1c2ccccc2c2cc(/C=C/c3cc[n+](C)c4ccccc34)ccc21.[I-] [SLM] | MRT inf | h | 1.7 |

Alright, here's another molecule for you.
## Task So what's the measured MRT inf for this one? COCCOCCn1c2ccccc2c2cc(/C=C/c3cc[n+](CCO)c4ccccc34)ccc21 [SLOH]
## Result 2.9
